# System: T1, human IL-18BP (human, UniProt O95998 31-194)
# T1 construct: also called hIL-18BP; Mature Human Isoform A
# T1 sequence: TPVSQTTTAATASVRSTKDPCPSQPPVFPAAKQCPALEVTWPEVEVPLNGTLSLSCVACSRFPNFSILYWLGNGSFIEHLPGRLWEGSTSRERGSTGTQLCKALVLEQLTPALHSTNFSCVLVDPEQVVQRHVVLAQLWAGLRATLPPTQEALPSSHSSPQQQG
# Experiment: BLI, apparent KD, one conc.
Property name: Kd
Mention the unit after the number when you answer.

- Binder: "SA301a light chain variant S27G (antibody, V domains shown) VH: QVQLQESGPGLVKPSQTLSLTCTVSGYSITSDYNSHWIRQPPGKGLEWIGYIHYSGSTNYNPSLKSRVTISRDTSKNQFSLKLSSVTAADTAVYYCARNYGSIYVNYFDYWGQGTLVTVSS VL: EIVLTQSPATLSLSPGERATLSCSASGSVSYMYWYQQKPGQAPRPLIYRTSNLASGIPARFSGSGSGTDFTLTISSLEPEDFAVYYCQQYHSYPTFGGGTKVEIK"
  Kd: "0.49 nM"

Req: Give its Kd value. Item: SA301a light chain variant S28M (antibody, V domains shown) VH: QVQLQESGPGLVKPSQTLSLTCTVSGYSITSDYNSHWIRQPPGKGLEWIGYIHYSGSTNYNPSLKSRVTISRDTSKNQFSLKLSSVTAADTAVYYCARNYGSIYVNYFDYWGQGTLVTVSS VL: EIVLTQSPATLSLSPGERATLSCSASSMVSYMYWYQQKPGQAPRPLIYRTSNLASGIPARFSGSGSGTDFTLTISSLEPEDFAVYYCQQYHSYPTFGGGTKVEIK
Resp: 0.51 nM
